Each recorded value in this set is attributed to patent US20240262910A1.

# systemTested: T1, human CD33, full length, on cells (human, UniProt P20138 18-364)
# T1 construct: NIH-3T3 cells stably overexpressing full-length human CD33, or AML lines U937 and Set2 with endogenous CD33; the cell line is named under assay; also called 3T3-huCD33; 3T3-CD33
# T1 sequence (P20138 18-364): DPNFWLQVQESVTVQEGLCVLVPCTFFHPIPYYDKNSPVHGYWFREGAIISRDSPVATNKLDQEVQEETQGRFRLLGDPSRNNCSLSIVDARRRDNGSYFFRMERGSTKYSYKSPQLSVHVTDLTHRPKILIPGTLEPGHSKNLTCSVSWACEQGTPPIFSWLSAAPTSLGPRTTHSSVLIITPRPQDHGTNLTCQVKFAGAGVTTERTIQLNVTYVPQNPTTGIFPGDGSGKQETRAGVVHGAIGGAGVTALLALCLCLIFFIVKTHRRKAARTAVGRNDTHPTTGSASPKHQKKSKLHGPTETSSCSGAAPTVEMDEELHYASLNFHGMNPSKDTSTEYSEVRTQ
# assayProtocol: flow cytometry, hybridoma supernatant, 3T3-huCD33 cells
We begin with a simple list: items and their reported MFI.
Kindly answer with a numeric value in MFI, unit omitted.

2-N3 (antibody, V domains shown, AlivaMab mouse hybridoma antibody; also called 2-N3-A) VH: EVQLVQSGADVKKPGESLKISCKGSGFSFTSHWIAWVRQMPGKGLEWMGIIYPGDSDTRYSPSLQGRVTISADKSISTAYLQWSSLKASDTAMYFCARHETGNGYSYGMDVWGQGTTVTVSS VL: DIVMTQSPLSLPVTPGEPASISCRSSQSLLHSNGYNYLDWYLQKPGQSPQLLFSLGSNRASGVPDRFSGSGSGTDFSLKISRVEAEDVGLYYCMQALQPPLTFGGGTKVEIK : 4.21e+06
1-J19 (hybridoma antibody) (antibody, V domains shown, AlivaMab mouse hybridoma antibody; also called 1-J19-A) VH: QVQLQQSGPGLVKPSQTLSLTCAISGDSVSSNSAAWNWIRQSPSRGLEWLGRTYFRSKWYNVYAVSVKSRITINPDTSKNQFSLQLNSVTPEDTAVYYCASEGGSYYDHWGQGTLVTVSS VL: DIQMTQSPSSVSASVGDRVTITCRASQGISNWLTWYQQKPGKAPKLLIYAASSLQSGVPSRFSGSGSGTDFTLTISSLQPEDFATYYCQQADSFPFTFGPGTKVDIK : 3.86e+06

Now take the following binder into account.
Request: Given 1-A20 (antibody, V domains shown, AlivaMab mouse hybridoma antibody; also called 1-A20-A) VH: QVQLQESGPGLVKPSETLSLTCTVSGDSISSYYWSWIRQPAGKGLEWIGRIYTSGNTNYNPSLKSRVTMSVDKSKNQFSLKLRSVTAADTAVYYCARDGDNRDSDAFDIWGQGTMVTVSS VL: SPGTLSLSPGERATLSCRASQNISSSYLAWCQQKPGQAPRLFIYGTSRRATGIPDRFSGSGSGTDFTLTISRLEPEDFAVYYCQQYGSSPLTFGGGTKVEIK , state its recorded MFI.
Response: 1.98e+06
